Assay: inhibitors of CD8+ T cell-vesicle binding, pilot screen, LFA-1/ICAM-1 modulator project, MLPCN validation set, flow cytometry (AID 2523);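 further: mean PE anti-B7-1 fluorescence of CD8+ cells relative to row control; 100% = QL9-loaded vesicles with DMSO vehicle in the same plate row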
Details: 2C mouse CD8+ T cells, at 7 µM, stronger effect = lower value
propertyLabel: vesicle binding response (%)
// note: answer is a bare numeric in %

Worked cases, answers included:
compound: CN[C@H](C)[C@H](O)c1ccccc1
vesicle binding response [%]: 176
//
compound: CN1C2CCC1CC(OC(=O)CCN1CCCC1)C2 (stereo unspecified)
vesicle binding response [%]: 194
//
compound: CC(=O)[C@H]1CC[C@H]2[C@@H]3CC[C@H]4C[C@H](O)CC[C@]4(C)[C@H]3C(=O)C[C@]12C
vesicle binding response [%]: 146
//
compound: [N-]=[N+]=NC1C[C@H](n2ccc(=O)[nH]c2=O)O[C@@H]1CO (stereo partly specified)
vesicle binding response [%]: 185

Qu. Can you share its vesicle binding response? I mean this compound: `c1ccc2c(c1)[nH]c1cnccc12`
Ans. 961

Qu. Suppose we examine the compound CC1CCC[C@H](O)CCCCCc2cc(O)cc(O)c2C(=O)O1 (stereo partly specified) ; what vesicle binding response value has been reported?
Ans. 174

###

Test: modulators of MEP2-GFP levels in yeast, primary screen, S. cerevisiae, multiplex flow cytometry (AID 1867);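 further: median GFP channel fluorescence of barcode-gated MEP2-GFP cells measured by flow cytometry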
Conditions: S. cerevisiae MEP2-GFP strain, 3 h, at 10 µM, stronger effect = higher value
Inconclusive results are not listed.
Form field: GFP response vs DMSO (one value per entry).
The reply should be a number in %, with the unit left off.

Sample answers from the record:
molSmiles: Cc1cc(OCc2cc(C(=O)O)oc2C)c2c3c(c(=O)oc2c1)CCCC3
propertyLabel: GFP response vs DMSO
quantitativeResult: 97.2
//
molSmiles: C=C1[C@@H](C)[C@H]2[C@H](Cc3ccccc3)NC(=O)[C@]23OC(=O)/C=C/[C@H](O)CCC[C@@H](C)C/C=C/[C@H]3[C@@H]1O
propertyLabel: GFP response vs DMSO
quantitativeResult: 102

We next turn to a different compound, shown below.
Qu. Any idea what its GFP response vs DMSO is? The compound is `COc1cccc(Oc2c(C)oc3cc(OC(=O)N(C)C)ccc3c2=O)c1`
Ans. 102

###

System: Botulinum neurotoxin type F light chain protease (Clostridium botulinum)
Test: Botulinum neurotoxin type F light chain protease inhibition, multiplex microsphere flow cytometry, validation set (AID 588459)
Conditions: multiplex microsphere protease substrate cleavage assay, at 10 µM, stronger effect = higher value
propertyLabel: inhibition (%)
# output: bare number, implied unit %

Please review the following examples before continuing.
molecule: Cn1c(=O)c2[nH]cnc2n(C)c1=O
readingUnit: %
inhibition: 2.7
--
molecule: COc1ccc(C(=O)O)cc1F
readingUnit: %
inhibition: -1.9
--
molecule: CCN1CC2(COC(=O)c3ccccc3N)CCC(OC)C34C5CC6C(OC)CC(O)(C5C6OC)C(O)(C(OC)C23)C14 (stereo not drawn)
readingUnit: %
inhibition: 1.9
--
molecule: COc1ccc2c(CCNC(=O)c3ccc([N+](=O)[O-])cc3)c[nH]c2c1
readingUnit: %
inhibition: 1.6
--
molecule: CC(=O)NC(Cc1ccccc1)C(=O)OCC(=O)c1ccccc1 (stereo not drawn)
readingUnit: %
inhibition: -2.6
--
molecule: C[C@]12CC[C@@H]3c4ccc(O)c(O)c4CC[C@H]3[C@@H]1CC[C@@H]2O
readingUnit: %
inhibition: 0.2

Qu. # inhibition lookup, item `CN(C)CCOC(c1ccccc1)c1ccccc1`
Ans. -0.7

Qu. Tell me the measured inhibition of C[C@H](NC(=O)OC(C)(C)C)C(=O)NCC1CCC(C(=O)O)CC1 (stereo partly drawn) , please.
Ans. 2.7

###

Here, each record is paired with measured inhibition data.
Molecular target: Lethal factor (Bacillus anthracis) (UniProt P15917)
Experiment: Lethal factor protease inhibitors, Bacillus anthracis, multiplex microsphere cleavage assay, validation set (AID 588461)
Conditions: flow cytometry, at 10 µM, stronger effect = higher value
Numeric only. Scale: %

Below: 3 molecules and their reported inhibition.
molecule: C[C@@H]1C[C@H]2[C@@H]3C[C@H](F)C4=CC(=O)C=C[C@]4(C)[C@@]3(F)[C@@H](O)C[C@]2(C)[C@@]1(O)C(=O)COC(=O)C(C)(C)C
readingUnit: %
inhibition: 3.4

molecule: O=C1c2ccccc2C2(c3ccccc3)NCCN12 (configuration not stated)
readingUnit: %
inhibition: 8.5

molecule: Cc1cn([C@H]2C[C@H](N=[N+]=[N-])[C@@H](CO)O2)c(=O)[nH]c1=O
readingUnit: %
inhibition: -2.8

Qu. Quick check: inhibition on Lethal factor (Bacillus anthracis) (UniProt P15917), item `OC[C@H]1O[C@@H](n2cnc3c(NC4CCCC4)ncnc32)[C@H](O)[C@@H]1O` ?
Ans. -6.9

Qu. Give Lethal factor (Bacillus anthracis) (UniProt P15917) inhibition for `O=C(O)CCCCCCCC(=O)O`
Ans. -1.4

Qu. Enter reported inhibition observed with Lethal factor (Bacillus anthracis) (UniProt P15917) for COc1cccc(C2CCCN2Cc2nc(CCC(C)C)no2)c1 (configuration not stated)
Ans. -7.6

Qu. So what inhibition did `COc1ccc(CCN(C)Cc2nc(Cc3ccc(OC)c(OC)c3)no2)cc1OC` get with Lethal factor (Bacillus anthracis) (UniProt P15917)?
Ans. 6.9

Qu. Find inhibition (Lethal factor (Bacillus anthracis) (UniProt P15917)) for the entry `CCn1c(N2CCN(CC(=O)c3c(C)n(C)c4ccc(OC)cc34)CC2)nc2c1c(=O)[nH]c(=O)n2C`
Ans. -10.7

Qu. Field: inhibition (Lethal factor (Bacillus anthracis) (UniProt P15917)). Entry: `COc1cc(CNc2nnnn2C)ccc1OCc1ccc(F)cc1Cl`
Ans. -1.3

###

Target: Botulinum neurotoxin type A (Clostridium botulinum)
Assay: BoNT/A light chain protease inhibitors, biochemical, multiplex microsphere flow cytometry, validation set (AID 588460)
Details: at 10 µM, stronger effect = higher value
propertyLabel: inhibition (%)
Answer with a number only, understood to be in %.

compound: O=C(O)c1ccc(N2C(=O)/C(=C\c3ccccc3)N=C2c2ccccc2)cc1
quantitativeResult: -1.6
//
compound: Cc1cc(C)nc(NS(=O)(=O)c2ccc(N)cc2)n1
quantitativeResult: 2.1
//
compound: O=S(=O)(CCc1nc2ccccc2[nH]1)c1ccc(Cl)cc1
quantitativeResult: -0.3
//
compound: CC1(C)CC(c2csc(N)n2)CCO1 (stereo not given)
quantitativeResult: -1

# evaluate next
Qu. For `COC(=O)C1=C(C)NC(C)=C(C(=O)OC)C1c1ccccc1[N+](=O)[O-]` , what is its reported inhibition?
Ans. 2.2

###

Molecular target: Botulinum neurotoxin type A (Clostridium botulinum)
Test: BoNT/A light chain protease inhibitors, biochemical, multiplex microsphere flow cytometry, validation set (AID 588460)
Conditions: at 10 µM, stronger effect = higher value
Activity calls are given as the source filed them. No rule for the calls is given here.
propertyLabel: inhibition

Qu. Return reported inhibition; argument: `CC(=O)NS(=O)(=O)c1ccc(N)cc1`
Ans. 1% (inactive)

###

Collected inhibition values appear next to each entry.
Biological target: Botulinum neurotoxin type A (Clostridium botulinum) (UniProt P0DPI0)
Test: BoNT/A light chain protease inhibitors, biochemical, multiplex microsphere flow cytometry, validation set (AID 588460)
Conditions: at 10 µM, stronger effect = higher value
Give a bare numeral; the unit % is implied.

Previously resolved entries follow.
molecule: COc1ccc2[nH]c(CN3CCN(CC(C)C)C(CCO)C3)c(C)c2c1 (configuration not stated)
readingUnit: %
quantitativeResult: 1.6
//
molecule: CN1CCC(=C2c3ccccc3CC(=O)c3sccc32)CC1
readingUnit: %
quantitativeResult: 0.8
//
molecule: COc1ccccc1N=CC1=C(O)CC(c2ccccc2)CC1=O (configuration not stated)
readingUnit: %
quantitativeResult: 2.2
//
molecule: COc1cc(OC)c(-c2nc3cnccc3n2C)cc1OC
readingUnit: %
quantitativeResult: -1.9

API: the following record is the query input.
Qu. Bench note: what inhibition did `COc1ccc2oc(C)c(C(N)=O)c2c1` show?
Ans. 0.5

###

Examples of compounds with documented GFP response relative to DMSO follow.
Test: LAP4-GFP expression modulators in yeast, confirmation, cell-based, cherry picks, flow cytometry, mother/daughter gates (AID 2271);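 further: ratio of sample to DMSO plate mean so 100% equals DMSO level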
Settings: S. cerevisiae LAP4-GFP strain, 3 h, measured here: mother cell gate response, at 10 µM, stronger effect = higher value
Provide only the numeric value, understood in %.

Example results:
molSmiles: C[C@]12CC[C@@H](O)C[C@@H]1CC[C@@H]1[C@@H]2CC[C@]2(C)[C@@H](O)CC[C@@H]12
readingUnit: %
GFP response relative to DMSO: 119
--
molSmiles: O=C1CN=C(c2ccccc2F)c2cc(Cl)ccc2N1
readingUnit: %
GFP response relative to DMSO: 98.3

Let us examine a further case.
Qu. Tell me the measured GFP response relative to DMSO of `O=C1NC(=O)N(Cc2ccco2)C(=O)/C1=C/c1ccc(-c2cccc([N+](=O)[O-])c2)o1` , please.
Ans. 176

FYI, the data here is from PubChem BioAssay.
